Target: TAAR1 (Homo sapiens, UniProt Q96RJ0)
Sequence (Q96RJ0 whole entry): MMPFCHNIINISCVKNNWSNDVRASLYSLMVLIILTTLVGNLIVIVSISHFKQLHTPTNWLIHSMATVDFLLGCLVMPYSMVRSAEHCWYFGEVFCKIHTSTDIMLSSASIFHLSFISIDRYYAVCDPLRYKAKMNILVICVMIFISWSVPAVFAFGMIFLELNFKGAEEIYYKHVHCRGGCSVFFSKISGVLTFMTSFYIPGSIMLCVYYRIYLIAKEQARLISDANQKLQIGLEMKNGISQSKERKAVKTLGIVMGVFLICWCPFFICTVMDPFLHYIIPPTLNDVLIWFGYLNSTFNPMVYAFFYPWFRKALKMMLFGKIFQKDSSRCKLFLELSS
Experiment: BRET-based cellular cAMP (EPAC biosensor) assay of TAAR1 agonism in transfected HEK-293 cells
Property Measured: pEC50
pEC50 field: float, defined as -log10 of concentration (mol/L).

### Prompt Endpoint output: pEC50 of COc1cccc(-c2nnc(CCN)[nH]2)c1.Cl [Compound 7] . Value?
### Response 6.04

### Prompt Would you kindly repeat that for Cl.NCCc1nnc(-c2ccc(-c3cccc(F)c3)cc2)[nH]1 [Compound 60] ?
### Response 7.59

### Prompt // query: Cl.NCCc1nnc(-c2ccc(OCc3cccc(F)c3)cc2)[nH]1 [Compound 44]
### Response 7.52

### Prompt Note, next up: Cc1ccccc1-c1nnc(CCN)[nH]1.Cl [Compound 23]
### Response 6.33

### Prompt And Cl.NCCc1nnc(-c2cccc(Oc3ccccc3Cl)c2)[nH]1 [Compound 53] ?
### Response 6.07

### Prompt Same question for Cl.NCCc1nnc(-c2cccc(I)c2)[nH]1 [Compound 41] please.
### Response 6.05

### Prompt Then what about the molecule COc1ccc(-c2ccc(-c3nnc(CCN)[nH]3)cc2)cc1OC.Cl [Compound 64] ?
### Response 6.73

### Prompt Then Cl.NCCc1nnc(-c2ccc(OCc3ccc(F)cc3)cc2)[nH]1 [Compound 45] ?
### Response 7.66

### Prompt Next entry: Cl.NCCc1nnc(-c2cccc([N+](=O)[O-])c2)[nH]1 [Compound 36]
### Response 6.36

### Prompt // next record Cc1cc(C)cc(-c2nnc(CCN)[nH]2)c1.Cl [Compound 31]
### Response 6.09

### Prompt Try the molecule Cc1cc(-c2nnc(CCN)[nH]2)ccc1OCc1ccccc1F.Cl [Compound 46]
### Response 6.40

### Prompt And Cl.NCCc1nnc(-c2ccc(-c3cccc(C(F)(F)F)c3)cc2)[nH]1 [Compound 63] ?
### Response 6.60

### Prompt Can you check Cc1ccc(Oc2ccc(-c3nnc(CCN)[nH]3)cc2)cc1.Cl [Compound 54] next?
### Response 6.82

### Prompt Also, Cl.NCCc1nnc(-c2ccc(OCc3ccccc3)cc2)[nH]1 [Compound 19] please.
### Response 7.59

### Prompt How about Cl.NCCc1nnc(-c2cccc(-c3ccc(OC(F)(F)F)cc3)c2)[nH]1 [Compound 67] ?
### Response 7.02

### Prompt Further, for Cl.NCCc1nnc(-c2ccc(OCc3ccccc3F)cc2)[nH]1 [Compound 43] ?
### Response 7.35

### Prompt Similarly, Cl.NCCc1nnc(-c2ccccc2)[nH]1 [Compound 22] ?
### Response 6.55

### Prompt Subsequent entry: Cl.NCCc1nnc(-c2ccc(OCc3ccccc3F)c(I)c2)[nH]1 [Compound 56]
### Response 6.50
